Origin of measurements: patent US6207677A

biological target: sigma receptors; test: Inhibition of 3H-DTG binding to sigma receptors in rat brain in vitro; details: 2 nM 3H-DTG, rat brain without cerebellum, 25° C., 20 min
Entries annotated with measured log10 IC50
MEASURE: log10 IC50 (log10 of the value in nM)

COMPOUND	READING
c1ccc(CCCCN2CCC3(CC2)OCc2ccccc23)cc1 [Compound 2a]	-0.60
Fc1ccc(C2CCN(CCCCc3noc4ccccc34)CC2)cc1 [Compound 19b]	-0.31
Fc1ccc(-n2cc(CCCCN3CCC4(CC3)COCc3ccccc34)c3ccccc32)cc1 [Compound 9a]	-0.47
Fc1ccc(C2CCN(CCCCc3cn(-c4ccccc4)c4ccccc34)CC2)cc1 [Compound 9p]	-0.55
c1ccc2c(c1)NCC2CCCCN1CCC2(CC1)Oc1ccccc1O2 (stereo not drawn) [Compound 13a]	0.57
Fc1ccc(N2CC(CCCCN3CCC4(CC3)OCc3ccccc34)c3ccccc32)cc1 (stereo not drawn) [Compound 30]	-1.15
O=C1N(CCCN2CCC3(CC2)OCc2ccccc23)CCN1c1ccccc1 [Compound 3c]	0.00
c1ccc2c(c1)COC21CCN(CCCSc2csc3ccccc23)CC1 [Compound 31a]	-0.64
c1ccc2c(c1)COC21CCN(CCCOC2CCCCC2)CC1 [Compound 2j]	-1.15

###

molecular target: sigma receptors; assay: Inhibition of 3H-DTG binding to sigma receptors in rat brain in vitro; conditions: 2 nM 3H-DTG, rat brain without cerebellum, 25° C., 20 min
API: label(entry) gives Fulfilled if the entry's IC50 is strictly smaller than 1 nM; on equality or larger values it gives Not fulfilled.

COMPOUND	CLASS_ASSIGNMENT
Fc1ccc(-n2nc(CCCCN3CCC4(CC3)OCc3ccccc34)c3cc(C(F)(F)F)ccc32)cc1 [Compound 17a]	Fulfilled
Cc1ccc2scc(CCCCN3CCC4(CC3)OCc3ccccc34)c2c1 [Compound 10c]	Fulfilled
Cc1ccc(C2CCN(CCCOc3cn(-c4ccc(F)cc4)c4ccc(Cl)cc34)CC2)cc1	Not fulfilled
Cn1cc(CCCCN2CCC3(CC2)OCc2ccccc23)c2ccccc21	Fulfilled
c1ccc2c(c1)COC21CCN(CCCCc2cn(-c3ccoc3)c3ccccc23)CC1	Not fulfilled
Fc1ccc(C2=CC3CCC(C2)N3CCCCc2cn(-c3ccc(F)cc3)c3ccccc23)cc1 (stereo not drawn)	Not fulfilled
c1ccc(CCCCN2CCC3(CC2)Cc2ccccc2CO3)cc1	Fulfilled
Fc1ccc(-n2cc(CCCCN3CCC4(CC3)Cc3ccccc3CO4)c3ccccc32)cc1	Not fulfilled
c1ccc(CCCCN2CCC3(CCCc4ccccc43)CC2)cc1	Not fulfilled
O=C1N(CCN2CCC3(CC2)OCc2ccccc23)CCN1c1ccccc1	Not fulfilled
c1ccc2c(c1)COC21CCN(CCCOc2csc3ccccc23)CC1	Fulfilled
Fc1ccc2occ(COCCN3CCC4(CC3)OCc3ccccc34)c2c1 [Compound 35b]	Not fulfilled
c1ccc(CCCCN2CCC3(CCc4ccccc4O3)CC2)cc1	Not fulfilled
c1ccc(CCCCN2CCC3(CC2)Oc2ccccc2O3)cc1 [Compound 25a]	Not fulfilled
CSCCCN1CCC2(CC1)OCc1ccccc12	Not fulfilled
c1ccc2c(c1)COC21CCN(CCCCc2noc3ccccc23)CC1 [Compound 19a]	Fulfilled
c1ccc2c(c1)COC21CCN(CCCCC2CCCCC2)CC1	Fulfilled

###

biological target: sigma receptors; experiment: Inhibition of 3H-DTG binding to sigma receptors in rat brain in vitro; conditions: 2 nM 3H-DTG, rat brain without cerebellum, 25° C., 20 min
pIC50: −log10 of the molar value.
Entries annotated with measured pIC50
MEASURE: pIC50

MOLECULE	READING
Cc1ccc(C2CCN(CCCCc3cn(-c4ccc(F)cc4)c4ccccc34)CC2)cc1 [Compound 9m]	8.80
C1=CC2(CCN(CCCCc3ccccc3)CC2)Oc2ccccc21 [Compound 2i]	8.37
CCCN1CCC2(CC1)OCc1ccccc12 [Compound 4a]	7.64
CC(C)CCCCN1CCC2(CC1)OCc1ccccc12 [Compound 4b]	9.28
c1ccc(CCCCN2C3CCC2CC2(C3)OCc3ccccc32)cc1 (stereo not shown) [Compound 2t]	8.27
Fc1ccc(-n2cc(CCCCN3CCC(c4cccc(C(F)(F)F)c4)CC3)c3ccccc32)cc1 [Compound 9t]	8.49
c1csc(-n2cc(CCCCN3CCC4(CC3)OCc3ccccc34)c3ccccc32)c1 [Compound 5d]	9.62
Fc1ccc(C2CCN(CCCCc3cn(-c4ccc(F)cc4)c4ccccc34)CC2)cc1 [Compound 9l]	9.85
O=S(=O)(CCCN1CCC2(CC1)OCc1ccccc12)C1CCCCC1 [Compound 2r]	8.52
c1ccc(CCCCCN2CCC3(CC2)OCc2ccccc23)cc1 [Compound 4e]	9.70
COc1ccccc1C1CCN(CCCCC2CNc3ccccc32)CC1 (stereo not shown) [Compound 13d]	8.68
O=S1(=O)CC(=CCCCN2CCC3(CC2)OCc2ccccc23)c2ccccc21 [Compound 32]	9.05
c1ccc(SCCCN2CCC3(CC2)OCc2ccccc23)cc1 [Compound 2p]	9.49
c1ccc2c(c1)COCC21CCN(CCCCC2CNc3ccccc32)CC1 (stereo not shown) [Compound 13c]	8.32
O=S1(=O)CC(CCCCN2CCC3(CC2)OCc2ccccc23)c2ccccc21 (stereo not shown) [Compound 33]	9.02
C(=CC1CCc2ccccc21)CCN1CCC2(CC1)OCc1ccccc12 (stereo not shown) [Compound 29]	9.92
Cc1ccc2c(c1)COC21CCN(CCCCc2cn(-c3ccc(F)cc3)c3ccccc23)CC1 [Compound 9h]	8.64
c1ccc(OCCCN2CCC3(CC2)OCc2ccccc23)cc1 [Compound 2k]	9.72
Fc1ccc(C2CCN(CCCCCCc3c[nH]c4ccccc34)CC2)cc1 [Compound 2ff]	9.37

###

biological target: sigma receptors; test: Inhibition of 3H-DTG binding to sigma receptors in rat brain in vitro; settings: 2 nM 3H-DTG, rat brain without cerebellum, 25° C., 20 min
pIC50: −log10 of the molar value.
Param threshold (9) applies to pIC50; output satisfied when value >= threshold, not satisfied when value < threshold.

COMPOUND	CLASS_ASSIGNMENT
Fc1ccc(-n2cc(OCCN3CCC4(CC3)OCc3ccccc34)c3cc(Cl)ccc32)cc1 [Compound 14a]	not satisfied
Fc1ccc(-n2cc(CCCCN3CCC(c4ccccc4)CC3)c3ccccc32)cc1	satisfied
O=C1N(CCCCN2CCC3(CC2)OCc2ccccc23)CCN1C1CCCCC1	not satisfied
Fc1ccc2c(c1)c(CCCCN1CCC3(CC1)OCc1ccccc13)cn2-c1ccsc1	satisfied
c1ccc(Cn2cc(CCCCN3CCC4(CC3)OCc3ccccc34)c3ccccc32)cc1	satisfied
CN(C)CCn1cc(CCCCN2CCC3(CC2)OCc2ccccc23)c2ccccc21	not satisfied

###

Entries annotated with measured IC50
biological target: sigma receptors; assay: Inhibition of 3H-DTG binding to sigma receptors in rat brain in vitro; details: 2 nM 3H-DTG, rat brain without cerebellum, 25° C., 20 min

MOLECULE	UNIT_NAME	IC50
Fc1ccc(-n2cc(CCCCN3CCC4(CC3)OCc3c(F)cccc34)c3ccccc32)cc1	nM	56
c1ccc2c(c1)OC1(CCN(CCCCc3c[nH]c4ccccc34)CC1)O2 [Compound 25b]	nM	36
O=S(=O)(CCCN1CCC2(CC1)OCc1ccccc12)c1ccccc1	nM	3.1
c1ccc(CCCCN2CCC3(CC2)SCc2ccccc23)cc1	nM	0.77
COc1ccccc1C1CCN(CCCCc2c[nH]c3ccccc23)CC1	nM	3.3
c1ccc2c(c1)COC21CCN(CCOCc2csc3ccccc23)CC1 [Compound 35a]	nM	0.73
c1ccc2c(c1)COCC21CCN(CCCCCCc2c[nH]c3ccccc23)CC1	nM	0.84
Clc1cccc(Cl)c1C1CCN(CCCCc2noc3ccccc23)CC1 [Compound 19d]	nM	4.4
Fc1ccc(C2CC3CCC(C2)N3CCCCc2noc3ccccc23)cc1 (stereo not drawn)	nM	1.9

###

target: sigma receptors; test: Inhibition of 3H-DTG binding to sigma receptors in rat brain in vitro; details: 2 nM 3H-DTG, rat brain without cerebellum, 25° C., 20 min
API: label(entry) gives Condition met if the entry's IC50 is strictly smaller than 0.6 nM; on equality or larger values it gives Condition not met.

MOLECULE	CLASS_ASSIGNMENT
c1ccc2c(c1)COC21CCN(CCCc2noc3ccccc23)CC1	Condition not met
c1ccc2c(c1)CCC2CCCCN1CCC2(CC1)OCc1ccccc12 (stereo not drawn)	Condition met
c1ccc(C2CCN(CCCCc3c[nH]c4ccccc34)CC2)cc1	Condition not met
Fc1ccc(-n2cc(CCCCN3CCC4(CC3)OCc3ccccc34)c3cc(F)ccc32)cc1	Condition met
c1ccc(CCCCN2CCC3(CCc4ccccc43)CC2)cc1	Condition met
Fc1ccc(-n2cc(OCCCN3CCC4(CC3)OCc3ccccc34)c3cc(Cl)ccc32)cc1	Condition not met
OC(CCCN1CCC2(CC1)OCc1ccccc12)c1ccc(F)cc1 (stereo not drawn) [Compound 26a]	Condition not met
Fc1ccc(C2CCN(CCCC3COc4ccc(F)cc43)CC2)cc1 (stereo not drawn) [Compound 11a]	Condition met
c1ccc(CCN2CCC3(CC2)OCc2ccccc23)cc1	Condition not met
CS(=O)(=O)n1cc(CCCCN2CCC3(CC2)OCc2ccccc23)c2ccccc21	Condition met
Fc1ccc2[nH]cc(CCCCN3CCC4(CC3)OCc3ccccc34)c2c1	Condition met
CC(=O)n1cc(CCCCN2CCC3(CC2)OCc2ccccc23)c2ccccc21	Condition met
O=S(=O)(c1cccs1)n1cc(CCCCN2CCC3(CC2)OCc2ccc(F)cc23)c2ccccc21	Condition met
Clc1ccc(C2CCN(CCCCc3c[nH]c4ccccc34)CC2)cc1Cl	Condition not met
Fc1ccc(-n2cc(CCCCN3CCC4(CC3)OCc3cccc(F)c34)c3ccccc32)cc1	Condition not met
c1ccc2c(c1)COC21CCN(CCCCc2nsc3ccccc23)CC1	Condition met
OC(CCCN1CCC2(CC1)OCc1ccccc12)c1ccccc1 (stereo not drawn) [Compound 26b]	Condition not met
c1ccc(CCCN2CCC3(CC2)OCc2ccccc23)cc1	Condition not met
